# key: entry, value: pIC50
- target-system: T1, cloned human SRIF receptor SSTR3 (human, UniProt P32745 1-418)
- T1 construct: whole, on cells; assayed as cryostat sections of membrane pellets of the transfected cells; also called hSSTR3
- T1 sequence (P32745 whole entry): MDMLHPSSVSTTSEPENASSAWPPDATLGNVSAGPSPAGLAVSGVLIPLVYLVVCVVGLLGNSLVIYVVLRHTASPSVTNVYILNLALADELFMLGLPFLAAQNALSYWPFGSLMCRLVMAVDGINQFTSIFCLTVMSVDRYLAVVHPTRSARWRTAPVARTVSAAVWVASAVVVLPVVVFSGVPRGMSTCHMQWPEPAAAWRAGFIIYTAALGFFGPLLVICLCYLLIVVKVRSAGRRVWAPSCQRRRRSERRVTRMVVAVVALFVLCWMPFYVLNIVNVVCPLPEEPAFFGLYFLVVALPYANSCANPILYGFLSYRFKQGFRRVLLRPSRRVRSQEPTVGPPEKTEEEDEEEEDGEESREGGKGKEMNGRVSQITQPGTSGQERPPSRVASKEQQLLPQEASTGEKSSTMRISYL
- test-name: radioligand displacement (125I-[Leu8,D-Trp22,Tyr25]SRIF-28), membrane pellet sections
Bridge positions count the residues as written; N and C are the ends. Square brackets hold non-standard residues; d marks the D form. * marks the point of attachment. Phe(4-CH2NH2) = NCc1ccc(C[C@H](N)C(=O)O)cc1; Phe(4-NH2) = Nc1ccc(C[C@H](N)C(=O)O)cc1; Carbamoyl = NC(=O)*
Units for pIC50: none; it is -log10 of a concentration expressed in mol/L.

Record excerpt, results attached:
binder: Carbamoyl-CF[Phe(4-NH2)][dW]KTFC-OH (disulfide 1-8; SMILES C[C@@H](O)[C@@H]1NC(=O)[C@H](CCCCN)NC(=O)[C@@H](Cc2c[nH]c3ccccc23)NC(=O)[C@H](Cc2ccc(N)cc2)NC(=O)[C@H](Cc2ccccc2)NC(=O)[C@@H](NC(N)=O)CSSC[C@@H](C(=O)O)NC(=O)[C@H](Cc2ccccc2)NC1=O, synthetic cyclic octapeptide; also called Peptide No. 4) [(cyclo)Cbm-Cys-Phe-4Aph-D-Trp-Lys-Thr-Phe-Cys-OH]
pIC50: 6.19
//
binder: H-YCF[Phe(4-CH2NH2)]WKTFC-OH (disulfide 2-9, here position 7 is 4Amp; also called Peptide 15; Peptide No. 15) [(cyclo)H-Tyr-Cys-Phe-4 Amp-Trp-Lys-Thr-Phe-Cys-OH]
pIC50: 6.49
//
binder: H-YCFA[dW]KTFC-OH (disulfide 2-9, synthetic cyclic nonapeptide; also called Peptide No. 14) [(cyclo)H-Tyr-Cys-Phe-Ala-D-Trp-Lys-Thr-Phe-Cys-OH]
pIC50: 6.46
//
binder: H-CF[Phe(4-NH2)][dW]KTFC-OH (disulfide 1-8, synthetic cyclic octapeptide; also called Peptide No. 2) [(cyclo)H-Cys-Phe-4Aph-D-Trp-Lys-Thr-Phe-Cys-OH]
pIC50: 6.57

stdin: Retrieve pIC50 measured for Carbamoyl-YCF[Phe(4-NH2)]WKTFC-OH (disulfide 2-9, synthetic cyclic nonapeptide; also called Peptide No. 8) [(cyclo)Cbm-Tyr-Cys-Phe-4Aph-Trp-Lys-Thr-Phe-Cys-OH] and print it.
stdout: 6.68
